Multiple publications report IC50 for Estrogen receptor beta (Homo sapiens); what follows is a combined list.
Recorded IC50 determines the group label, using lo: < 20 nM; mid: ≥ 20 nM and < 400 nM; hi: ≥ 400 nM

Answered cases to consult:
CCCCCCCCCCCc1c(O)cc(O)c2c1O[C@H](c1ccc(O)cc1)CC2=O
hi
O=C(c1ccc(N2CCN(Cc3ccccc3)CC2)cc1)c1c(-c2ccc(O)cc2)sc2cc(O)ccc12
lo
COc1cc(CNC(=O)[C@@]2(Cc3ccccc3)OC(=O)N([C@@H]3CCc4ccccc43)C2=O)cc(OC)c1
hi
COc1cc([C@@H]2C(=O)c3ccc(O)cc3O[C@@H]2c2ccc(OCCN3CCCCC3)cc2)ccc1O
hi
Oc1ccc2c(c1)OCCC1=C2[C@H](c2ccc(OCCN3CCCCCC3)cc2)Oc2cc(F)ccc21
mid

*Q* Category of `COc1ccc2c(c1)OCCC1=C2[C@@H](c2ccc(OCCN3CCCCC3)cc2)Oc2cc(O)ccc21` :
*A* mid

*Q* Lab log: `Oc1ccc2cc(-c3cc(F)c(O)c(F)c3)ccc2c1Cl` — assign IC50 category
*A* lo

* * *

Several publications report IC50 on Estrogen receptor beta (Homo sapiens, UniProt Q92731); those values are gathered here.
Sequence (Q92731 whole entry): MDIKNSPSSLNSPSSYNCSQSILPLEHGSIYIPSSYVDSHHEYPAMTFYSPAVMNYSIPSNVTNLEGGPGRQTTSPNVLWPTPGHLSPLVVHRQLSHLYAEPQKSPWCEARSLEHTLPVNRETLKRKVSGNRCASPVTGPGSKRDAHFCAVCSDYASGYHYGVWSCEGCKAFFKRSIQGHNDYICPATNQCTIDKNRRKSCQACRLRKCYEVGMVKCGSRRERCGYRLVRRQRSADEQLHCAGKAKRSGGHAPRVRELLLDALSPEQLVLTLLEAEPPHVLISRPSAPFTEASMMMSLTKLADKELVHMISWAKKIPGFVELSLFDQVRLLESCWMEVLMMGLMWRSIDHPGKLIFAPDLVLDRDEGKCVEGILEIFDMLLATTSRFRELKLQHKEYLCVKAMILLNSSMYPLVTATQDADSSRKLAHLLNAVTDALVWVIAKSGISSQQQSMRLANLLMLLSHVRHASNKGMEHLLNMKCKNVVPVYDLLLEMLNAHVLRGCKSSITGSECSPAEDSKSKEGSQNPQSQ
Mark condition met only for IC50 values smaller than 90 nM; exact matches and larger values are condition not met.

Would you please look over these solved cases?
CC(=O)c1cc(-c2ccc(O)cc2)nc2ccc(O)cc12
condition not met
CCC1=C2c3ccc4[nH]nnc4c3CC2(CC)CCC1=O (stereo not given)
condition met
Oc1cccc(-c2ccc3cc(O)ccc3c2)c1
condition met

Read the next record carefully.
*Q* Does `N#Cc1cc(-c2cc(F)c(O)cc2F)cc2ccc(O)cc12` have IC50 strictly under 90 nM?
*A* condition met

* * *

Reported log10 of IC50 against Estrogen receptor beta (Homo sapiens), gathered from multiple publications, appears below.
Hi team, quick reminder: these entries are log10 of IC50 (nM).

CCc1cc(-c2ccc(O)c(F)c2)cc2ccc(O)cc12
0.38
O=C1c2ccc(O)cc2C(=O)N1c1ccc(O)cc1F
2.53
Oc1ccc2c(c1)OCCC1=C2[C@H](c2ccc(OCCN3CCCCC3)cc2)Oc2ccccc21
1.38
CCc1cc(O)cc2ccc(-c3ccc(O)c(F)c3)cc12
0.40
CC(C)N(CCOc1ccc([C@H]2Oc3cc(O)ccc3C3=C2c2ccc(O)cc2OCC3)cc1)C(C)C
1.30
CC1(C)Oc2cc(O)cc(O)c2N=C1c1ccc(O)c(Br)c1
3.23
C=Cc1cc(-c2ccc(O)c(F)c2)cc2ccc(O)cc12
0.64
CC1=C2c3ccc4[nH]ncc4c3CC2(Cc2cccc(F)c2)CCC1=O (stereo not given)
3.20

We now examine a further molecule.
*Q* State the measured log10 of IC50 (Estrogen receptor beta (Homo sapiens)) of `N#Cc1cc(O)ccc1-c1noc2cc(O)ccc12`
*A* 1.08

* * *

pIC50: −log10 of the molar value.
# literature pull: Estrogen receptor beta (Homo sapiens) pIC50
Record true (1) whenever pIC50 is at 8 or higher; record false (0) when lower.

A selection of reference data follows.
CCCCC12CCC(=O)C(Br)=C1c1ccc3nn[nH]c3c1C2 (racemic)
true (1)
CS(=O)(=O)c1ccc(C2=C(c3ccc(OCCN4CCCC4)cc3)c3ccc(F)cc3OCC2)cc1
false (0)
CCCCC12CCC(=O)C(Br)=C1c1ccc3[nH]ncc3c1C2 (racemic)
true (1)
CCCCC12CCC(=O)C=C1c1ccc3[nH]ncc3c1C2 (racemic)
false (0)
Oc1ccc2c(-c3nc4cc(F)c(O)cc4o3)cccc2c1
false (0)

*Q* Is pIC50 at least 8? Consider `Oc1ccc2cc(-c3ccc(O)c(F)c3)ccc2c1`
*A* true (1)

*Q* Please check the record `O=C1c2ccc(O)cc2C(=O)N1c1ccc(O)c2ccccc12` and state if its pIC50 is at or above 8.
*A* false (0)
